Tested on: mouse ear inflammation
Assay: mouse ear inflammation model
Type: in vivo
The following compounds are listed with their measured Inhibition of inflammation at 2 mg/ear values.
Reported metric: Inhibition of inflammation at 2 mg/ear (%)

- Compound: "CCCCC(O)c1cccc(COc2cccc3cccnc23)c1 (stereo not shown)"
  Val: 70.0
- Compound: "CCCCCCC(O)c1cccc(COc2cccc3cccnc23)c1 (stereo not shown)"
  Val: 86.1
- Compound: "CCCCCCC(OC(C)=O)c1cccc(COc2cccc3cccnc23)c1 (stereo not shown)"
  Val: 72.0
- Compound: "CCCCCC(OC(C)=O)c1cccc(COc2cccc3cccnc23)c1 (stereo not shown)"
  Val: 75.0

---

Tested on: lipoxygenase
Experiment: LTB4 release on polymorphonuclear rat leucocytes (PMN) by RP-HPLC after Ca ionophor, as a measure of lipoxygenase inhibition
Type: cell-based

- Compound: "CCCCCC(OC(C)=O)c1cccc(COc2cccc3cccnc23)c1 (stereo not shown)"
  LO inhibition IC50 values / µg/mL: 0.14
- Compound: "CCCCCCC(O)c1cccc(COc2cccc3cccnc23)c1 (stereo not shown)"
  LO inhibition IC50 values / µg/mL: 0.23
- Compound: "CCCCCCC(OC(C)=O)c1cccc(COc2cccc3cccnc23)c1 (stereo not shown)"
  LO inhibition IC50 values / µg/mL: 0.26
- Compound: "CCCCC(O)c1cccc(COc2cccc3cccnc23)c1 (stereo not shown)"
  LO inhibition IC50 values / µg/mL: 0.083

Hey, just so you know, these numbers are from patent US5006534A.
